Origin of the recorded values: the Immune Epitope Database (IEDB)

- experimental.system: HLA-A*03:01
- assay.protocol: IEDB peptide-MHC binding, purified MHC/competitive/radioactivity; filed as Kd, often an IC50 or EC50 that approximates it; bounds were set here for any values at or beyond the usual limits of such assays
- test.conditions: source organism: Dengue virus 2 Jamaica/1409/1983
Parameter Kd: see the listing below.
Answer format: numeric, nM implied, no suffix.

Exam item: Form field: reported Kd of GVFTTNIWLK
Marked response: 29.3

Exam item: Form field: reported Kd of KSRLNALGK
Marked response: 11.3

====

- experimental.system: HLA-B*44:03
- assay.protocol: IEDB peptide-MHC binding, purified MHC/competitive/radioactivity; filed as Kd, often an IC50 or EC50 that approximates it; bounds were set here for any values at or beyond the usual limits of such assays
- test.conditions: source organism: Dengue virus 3 Martinique/1243/1999
Parameter Kd: see the listing below.
Answer format: numeric, nM implied, no suffix.

{"seq": "AETQNSSFII", "measure.unit": "nM", "Kd": 34.7}

Exam item: # returns recorded Kd (system: HLA-B*44:03) for EEEMFKKRNL
Marked response: 815
